Biological target: T1, short isoform of VEGF (8-109) (UniProt P15692 214-315)
T1 construct: range 8-109; Immobilized by amine coupling for SPR; in solution for the fluorescence assay; also called vascular endothelial growth factor
T1 sequence (looked up): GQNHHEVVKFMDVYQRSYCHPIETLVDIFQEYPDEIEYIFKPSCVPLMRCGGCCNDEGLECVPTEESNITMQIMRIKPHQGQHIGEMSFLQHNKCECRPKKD
Assay: fluorescence-based association assay in solution, 25 mM Tris pH 7.2, 37 C
Experimental: In the experiments described here, the fluorescence emission intensity (λexcitation=295 nm; λₑₘᵢₛₛᵢₒₙ=340 nm, 16 nm bandpass) was measured using an 8000-series SLM-Aminco spectrophotometer (THERMOSPECTRONIC®) as VEGF was added to a stirred cuvette containing approximately 10 nM Fab in 25 mM Tris, pH 7.2, held at 37° C. […]
Please go through the items and note down their kon.
Could you give me the number in M⁻¹ s⁻¹? Just the number is fine.

Request the reported kon associated with Fab Y0101 variant, light chain S26K, Q27K, D28N, S30T (Fab, V domains shown, Fab of Y0101 with several light chain substitutions) VH: EVQLVESGGGLVQPGGSLRLSCAASGYTFTNYGMNWVRQAPGKGLEWVGWINTYTGEPTYAADFKRRFTFSLDTSKSTAYLQMNSLRAEDTAVYYCAKYPHYYGSSHWYFDVWGQGTLVTVSS VL: DIQLTQSPSSLSASVGDRVTITCSAKKNITNYLNWYQQKPGKAPKVLIYFTSSLHSGVPSRFSGSGSGTDFTLTISSLQPEDFATYYCQQYSTVPWTFGQGTKVEIKR 610000

Which value of kon has been reported for Fab Y0101 variant, heavy chain T28D, S100aR (Fab, V domains shown, Fab; also called altered heavy chain T28D-S100aR) VH: EVQLVESGGGLVQPGGSLRLSCAASGYDFTNYGMNWVRQAPGKGLEWVGWINTYTGEPTYAADFKRRFTFSLDTSKSTAYLQMNSLRAEDTAVYYCAKYPHYYGRSHWYFDVWGQGTLVTVSS VL: DIQLTQSPSSLSASVGDRVTITCSASQDISNYLNWYQQKPGKAPKVLIYFTSSLHSGVPSRFSGSGSGTDFTLTISSLQPEDFATYYCQQYSTVPWTFGQGTKVEIKR in the records? 1.4e+06

Measured values drawn from patent US20030224397A1 for this set.
